Some compounds, each annotated with its measured Plant response rating, Crabgrass, Large.
Test system: crabgrass, large
Assay: Test A preemergence
Type: in vivo, Digitaria sanguinalis
Settings: 125 g ai/ha, 0 to 100 scale (0 no effect, 100 complete control)
Description: […]
# print the numeric value only

The examples below pair each entry with its known result.
> print(dat)
                                   compound  experimental.system  meas.value
1  CCn1nc(-c2ccc(F)cc2)nc1Cc1ccnc(C(F)(F)F)c1     crabgrass, large          90
2  Cc1nc(-c2ccc(C(F)(F)F)cc2)nn1Cc1cccc(OC(F)(F)F)c1     crabgrass, large           0
3  CCc1nc(-c2ccc(F)cc2)nn1Cc1ccnc(C(F)(F)F)c1     crabgrass, large         100
4  CCc1nc(-c2cccc(C(F)(F)F)c2)nn1Cc1ccnc(C(F)(F)F)c1     crabgrass, large          20

# compound `CCCn1nc(-c2ccc(F)cc2)nc1C(=O)c1ccnc(C(F)(F)F)c1` ; its Plant response rating, Crabgrass, Large = 20

# compound CCCn1nc(-c2ccc(F)cc2)nc1C(O)c1ccnc(C(F)(F)F)c1 (centres unmarked) ; its Plant response rating, Crabgrass, Large = 60

# compound `Cc1nc(-c2ccc(C(F)(F)F)cc2)nn1Cc1ccnc(C(F)(F)F)c1` ; its Plant response rating, Crabgrass, Large = 90

# compound `CCCc1nc(-c2ccc(C(F)(F)F)cc2)nn1Cc1ccnc(C(F)(F)F)c1` ; its Plant response rating, Crabgrass, Large = 100

Reference source: patent US10681909B2
